- run-description: refractive index (Na D-line) (dimensionless)
- condition-context: 328.15 K; 101.33 kPa; Liquid; Standard Abbe refractometry
Numbers after ± are expanded uncertainties.
Listed compounds paired with reported refractive index

- compound: "CCC[N+]1(C)CCCC1.O=S(=O)([N-]S(=O)(=O)C(F)(F)F)C(F)(F)F"
  refractive index: "1.41252 ± 0.00063"
- compound: "CCn1cc[n+](C)c1.N#C[B-](C#N)(C#N)C#N [1-ethyl-3-methylimidazolium tetracyanoborate]"
  refractive index: "1.43745 ± 0.00066"
- compound: "CCCCn1cc[n+](C)c1.O=S(=O)([N-]S(=O)(=O)C(F)(F)C(F)(F)C(F)(F)C(F)(F)F)C(F)(F)C(F)(F)C(F)(F)C(F)(F)F"
  refractive index: "1.3793 ± 0.00064"
- compound: "CCn1cc[n+](C)c1.F[B-](F)(F)F [1-ethyl-3-methylimidazolium tetrafluoroborate]"
  refractive index: "1.40452 ± 0.00062"
- compound: "CCOS(=O)(=O)[O-].CCn1cc[n+](C)c1 [1-ethyl-3-methylimidazolium ethyl sulfate]"
  refractive index: "1.4713 ± 0.00063"

Task: Supply refractive index value. Item: CCn1cc[n+](C)c1.O=S(=O)([N-]S(=O)(=O)C(F)(F)F)C(F)(F)F
Output: 1.41458 ± 0.00063

* * *

- run-description: refractive index (Na D-line) (dimensionless)
- condition-context: 333.15 K; 101.33 kPa; Liquid; Standard Abbe refractometry
Listed compounds paired with reported refractive index
Reply with just the number.

- compound: "CCn1cc[n+](C)c1.O=S(=O)([O-])O [1-ethyl-3-methylimidazolium hydrogen sulfate]"
  refractive index: 1.48944
- compound: "CCOS(=O)(=O)[O-].CCn1cc[n+](C)c1 [1-ethyl-3-methylimidazolium ethyl sulfate]"
  refractive index: 1.46994
- compound: "CCn1cc[n+](C)c1.F[B-](F)(F)F [1-ethyl-3-methylimidazolium tetrafluoroborate]"
  refractive index: 1.40327
- compound: "CCn1cc[n+](C)c1.N#C[B-](C#N)(C#N)C#N [1-ethyl-3-methylimidazolium tetracyanoborate]"
  refractive index: 1.43578
- compound: "CCn1cc[n+](C)c1.CS(=O)(=O)[O-] [1-ethyl-3-methylimidazolium methanesulfonate]"
  refractive index: 1.48638

Task: Supply refractive index value. Item: CCn1cc[n+](C)c1.N#CN=C=[N-] [1-ethyl-3-methylimidazolium dicyanamide]
Output: 1.50191

* * *

- condition-context: 343.15 K; 101.33 kPa; Liquid; Vibrating tube method
Listed compounds paired with reported mass density
Unit kg/m3 implied. Number only.

- compound: "CCn1cc[n+](C)c1.N#CN=C=[N-] [1-ethyl-3-methylimidazolium dicyanamide]"
  obs-value: 1072
- compound: "CCn1cc[n+](C)c1.F[B-](F)(F)F [1-ethyl-3-methylimidazolium tetrafluoroborate]"
  obs-value: 1246.5
- compound: "CCn1cc[n+](C)c1.N#C[B-](C#N)(C#N)C#N [1-ethyl-3-methylimidazolium tetracyanoborate]"
  obs-value: 993.6
- compound: "CCn1cc[n+](C)c1.CS(=O)(=O)[O-] [1-ethyl-3-methylimidazolium methanesulfonate]"
  obs-value: 1211.5
- compound: "CCCCn1cc[n+](C)c1.O=S(=O)([N-]S(=O)(=O)C(F)(F)C(F)(F)C(F)(F)C(F)(F)F)C(F)(F)C(F)(F)C(F)(F)C(F)(F)F"
  obs-value: 1558.4
- compound: "CCC[N+]1(C)CCCC1.O=S(=O)([N-]S(=O)(=O)C(F)(F)F)C(F)(F)F"
  obs-value: 1387.2
- compound: "CCOS(=O)(=O)[O-].CCn1cc[n+](C)c1 [1-ethyl-3-methylimidazolium ethyl sulfate]"
  obs-value: 1207.6
- compound: "CCn1cc[n+](C)c1.O=S(=O)([O-])O [1-ethyl-3-methylimidazolium hydrogen sulfate]"
  obs-value: 1339.4
- compound: "CCn1cc[n+](C)c1.N#C[S-] [1-ethyl-3-methylimidazolium thiocyanate]"
  obs-value: 1088.4

Here is the next item to consider.
Task: Supply mass density value. Item: CCn1cc[n+](C)c1.O=S(=O)([N-]S(=O)(=O)C(F)(F)F)C(F)(F)F
Output: 1473.6

* * *

- condition-context: 313.15 K; 101.33 kPa; Liquid; Vibrating tube method
test-readout: mass density (kg/m3)
Unit kg/m3 implied. Number only.

- molecule: "CCn1cc[n+](C)c1.N#C[B-](C#N)(C#N)C#N [1-ethyl-3-methylimidazolium tetracyanoborate]"
  unit-text: "kg/m3"
  obs-value: 1016.9
- molecule: "CCC[N+]1(C)CCCC1.O=S(=O)([N-]S(=O)(=O)C(F)(F)F)C(F)(F)F"
  unit-text: "kg/m3"
  obs-value: 1413.8
- molecule: "CCn1cc[n+](C)c1.N#CN=C=[N-] [1-ethyl-3-methylimidazolium dicyanamide]"
  unit-text: "kg/m3"
  obs-value: 1091.3
- molecule: "CCn1cc[n+](C)c1.CS(=O)(=O)[O-] [1-ethyl-3-methylimidazolium methanesulfonate]"
  unit-text: "kg/m3"
  obs-value: 1231.5
- molecule: "CCOS(=O)(=O)[O-].CCn1cc[n+](C)c1 [1-ethyl-3-methylimidazolium ethyl sulfate]"
  unit-text: "kg/m3"
  obs-value: 1227.6
- molecule: "CCn1cc[n+](C)c1.O=S(=O)([O-])O [1-ethyl-3-methylimidazolium hydrogen sulfate]"
  unit-text: "kg/m3"
  obs-value: 1357.8
- molecule: "CCCCn1cc[n+](C)c1.O=S(=O)([N-]S(=O)(=O)C(F)(F)C(F)(F)C(F)(F)C(F)(F)F)C(F)(F)C(F)(F)C(F)(F)C(F)(F)F"
  unit-text: "kg/m3"
  obs-value: 1593.2
- molecule: "CCn1cc[n+](C)c1.N#C[S-] [1-ethyl-3-methylimidazolium thiocyanate]"
  unit-text: "kg/m3"
  obs-value: 1106.3
- molecule: "CCn1cc[n+](C)c1.F[B-](F)(F)F [1-ethyl-3-methylimidazolium tetrafluoroborate]"
  unit-text: "kg/m3"
  obs-value: 1269.1

Task: Supply mass density value. Item: CCn1cc[n+](C)c1.O=S(=O)([N-]S(=O)(=O)C(F)(F)F)C(F)(F)F
Output: 1503.3

* * *

Listed compounds paired with reported mass density
- condition-context: 338.15 K; 101.33 kPa; Liquid; Vibrating tube method
Unit kg/m3 implied. Number only.

Known results for compounds:
- compound: "CCCCn1cc[n+](C)c1.O=S(=O)([N-]S(=O)(=O)C(F)(F)C(F)(F)C(F)(F)C(F)(F)F)C(F)(F)C(F)(F)C(F)(F)C(F)(F)F"
  test-readout: "mass density"
  obs-value: 1564.2
- compound: "CCn1cc[n+](C)c1.N#CN=C=[N-] [1-ethyl-3-methylimidazolium dicyanamide]"
  test-readout: "mass density"
  obs-value: 1075.2

Here is the next item to consider.
Task: Supply mass density value. Item: CCn1cc[n+](C)c1.F[B-](F)(F)F [1-ethyl-3-methylimidazolium tetrafluoroborate]
Output: 1250.2

* * *

- condition-context: 308.15 K; 101.33 kPa; Liquid; Vibrating tube method
Listed molecules paired with reported mass density
Unit kg/m3 implied. Number only.

- molecule: "CCn1cc[n+](C)c1.F[B-](F)(F)F [1-ethyl-3-methylimidazolium tetrafluoroborate]"
  test-readout: "mass density"
  obs-value: 1272.9
- molecule: "CCn1cc[n+](C)c1.N#C[S-] [1-ethyl-3-methylimidazolium thiocyanate]"
  test-readout: "mass density"
  obs-value: 1109.4
- molecule: "CCn1cc[n+](C)c1.N#C[B-](C#N)(C#N)C#N [1-ethyl-3-methylimidazolium tetracyanoborate]"
  test-readout: "mass density"
  obs-value: 1020.9
- molecule: "CCn1cc[n+](C)c1.O=S(=O)([O-])O [1-ethyl-3-methylimidazolium hydrogen sulfate]"
  test-readout: "mass density"
  obs-value: 1361.1
- molecule: "CCn1cc[n+](C)c1.O=S(=O)([N-]S(=O)(=O)C(F)(F)F)C(F)(F)F"
  test-readout: "mass density"
  obs-value: 1508.4

Task: Supply mass density value. Item: CCn1cc[n+](C)c1.N#CN=C=[N-] [1-ethyl-3-methylimidazolium dicyanamide]
Output: 1094.6

Task: Supply mass density value. Item: CCCCn1cc[n+](C)c1.O=S(=O)([N-]S(=O)(=O)C(F)(F)C(F)(F)C(F)(F)C(F)(F)F)C(F)(F)C(F)(F)C(F)(F)C(F)(F)F
Output: 1599.1

Task: Supply mass density value. Item: CCOS(=O)(=O)[O-].CCn1cc[n+](C)c1 [1-ethyl-3-methylimidazolium ethyl sulfate]
Output: 1231

Task: Supply mass density value. Item: CCC[N+]1(C)CCCC1.O=S(=O)([N-]S(=O)(=O)C(F)(F)F)C(F)(F)F
Output: 1418.3

Task: Supply mass density value. Item: CCn1cc[n+](C)c1.CS(=O)(=O)[O-] [1-ethyl-3-methylimidazolium methanesulfonate]
Output: 1234.9

Values were extracted from the NIST ThermoML archive (doi:10.1021/je201289w).
